For each of the binders below, state its EC50.
- target-of-assay: T1, CD73 on the surface of human tumor cells (human, UniProt P21589 27-549)
- T1 chain: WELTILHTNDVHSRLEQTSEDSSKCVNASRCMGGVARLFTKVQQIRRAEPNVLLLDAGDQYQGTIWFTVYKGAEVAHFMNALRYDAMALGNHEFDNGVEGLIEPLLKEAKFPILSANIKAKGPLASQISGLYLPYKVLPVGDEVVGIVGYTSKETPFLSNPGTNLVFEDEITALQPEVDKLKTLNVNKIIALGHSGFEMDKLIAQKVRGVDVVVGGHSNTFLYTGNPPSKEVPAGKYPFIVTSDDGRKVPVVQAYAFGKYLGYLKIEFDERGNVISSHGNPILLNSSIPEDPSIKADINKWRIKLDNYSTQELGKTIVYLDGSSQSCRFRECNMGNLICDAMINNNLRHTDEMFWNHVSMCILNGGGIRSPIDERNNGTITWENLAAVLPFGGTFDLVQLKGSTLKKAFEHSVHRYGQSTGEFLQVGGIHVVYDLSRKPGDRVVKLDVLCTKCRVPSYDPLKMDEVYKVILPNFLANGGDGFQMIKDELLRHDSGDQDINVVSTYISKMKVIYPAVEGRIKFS
- measurement-protocol: FACS; NCI-H1299 cells, right table
Supply the numeric figure in nM, leaving out any unit text.

Hu001c-30 (antibody, V domains shown) VH: QVQLVQSGAEVKKPGASVKVSCKASGYTFTNYYIYWVKQRPGQRLEWIGWIYPGNLNIKYNEKFKGRSTLTADKSASTAYMELSSLRSEDTAVYYCARDDNYAWFAYWGQGTLVTVSS VL: DIQMTQSPSSLSASVGDRVTITCKASQDVSTAVAWYQQKPGKAPKLLIYWTNTRHTGVPSRFSGSGSGTDFTLTISSLQPEDFATYYCQQHYSTPFTFGQGTKLEIK yielded EC50 of 1.61

Hu001c-14 (antibody, V domains shown) VH: QVQLVQSGAEVKKPGASVKVSCKTSGYTFTNYYIYWVRQAPGQRLEWMGWIYPGNLNIKYNEKFKGRVTITADTSASTAYMELSSLRSEDTAVYYCARDDNYAWFAYWGQGTLVTVSS VL: DIQMTQSPSSLSASVGDRVTITCKASQDVSTAVAWYQQKPGKAPKLLIYWTNTRHTGVPSRFSGSGSGTDHTLTISSLQPEDFATYYCQQHYSTPFTFGQGTKLEIK yielded EC50 of 1.16

Hu001c-31 (antibody, V domains shown) VH: QVQLVQSGAEVKKPGASVKVSCKASGYTFTNYYIYWVRQAPGQRLEWIGWIYPGNLNIKYNEKFKGRSTLTADKSASTAYMELSSLRSEDTAVYYCARDDNYAWFAYWGQGTLVTVSS VL: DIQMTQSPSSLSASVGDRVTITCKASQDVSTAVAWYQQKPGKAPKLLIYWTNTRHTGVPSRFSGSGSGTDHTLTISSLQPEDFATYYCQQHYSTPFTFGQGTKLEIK yielded EC50 of 1.24

Hu001c-23 (antibody, V domains shown) VH: QVQLVQSGAEVKKPGASVKVSCKASGYTFTNYYIYWVKQRPGQGLEWIGWIYPGNLNIKYNEKFKGRVTITADKSASTAYMELSSLRSEDTAVYYCARDDNYAWFAYWGQGTLVTVSS VL: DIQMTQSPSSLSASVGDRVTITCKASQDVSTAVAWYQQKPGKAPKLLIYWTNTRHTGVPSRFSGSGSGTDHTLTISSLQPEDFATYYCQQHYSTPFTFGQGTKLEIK yielded EC50 of 1.48

mAb001c-VK-SGS (antibody, V domains shown) VH: QVQLQQSGPELVKPGASVRISCKTSGYTFTNYYIYWVKQRPGQGLEWIGWIYPGNLNIKYNEKFKGKSTLTADKSSSTAFMQLSSLTSEDSAVYFCARDDNYAWFAYWGQGTLVTVSS VL: DIVMTQSHKFMSTSIGDRVSITCKASQDVSTAVAWYQQKPGQSPKLLIYWTNTRHTGVPDRFTGSGSGTEHTLTISSVQAEDLALYYCQQHYSTPFTFGSGTTLEIK yielded EC50 of 1.65

Hu001c-32 (antibody, V domains shown) VH: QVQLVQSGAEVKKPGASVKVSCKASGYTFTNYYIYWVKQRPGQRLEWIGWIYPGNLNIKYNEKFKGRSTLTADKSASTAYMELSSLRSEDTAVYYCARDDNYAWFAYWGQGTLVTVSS VL: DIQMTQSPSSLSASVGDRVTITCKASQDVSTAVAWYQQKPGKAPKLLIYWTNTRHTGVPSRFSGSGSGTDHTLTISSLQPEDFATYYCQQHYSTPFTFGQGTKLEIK yielded EC50 of 1.62
